# System: Staphylococcus aureus
# Protocol: Antimicrobial activity against methicillin-susceptible Staphylococcus aureus ATCC 25923 assessed as bacterial growth inhibitions by CLSI protocol based microdilution method
# Format: functional
Measured metric: MIC (µg/mL)
Entry rule: numbers only, all in µg/mL.

What measured MIC goes with CN[C@H](CC(C)C)C(=O)N[C@H]1C(=O)N[C@@H](CC(N)=O)C(=O)N[C@H]2C(=O)N[C@H]3C(=O)N[C@H](C(=O)N[C@H](C(=O)O)c4cc(O)cc(O)c4-c4cc3ccc4O)[C@H](O)c3ccc(c(Cl)c3)Oc3cc2cc(c3O[C@@H]2O[C@H](CO)[C@@H](O)[C@H](O)[C@H]2O[C@H]2C[C@](C)(N)[C@H](O)[C@H](C)O2)Oc2ccc(cc2Cl)[C@H]1O [VANCOMYCIN] ?
0.78

Requested read-out: MIC. Entry: `O=C(O)c1ccc(-n2cc(CNc3ccc(Cl)c(C(F)(F)F)c3)c(-c3ccc(C(F)(F)F)cc3)n2)cc1`
0.78

// lookup MIC for `O=C(O)c1ccc(-n2cc(CNc3cc(Cl)c(F)cc3F)c(-c3ccc(C(F)(F)F)cc3)n2)cc1`
1.56

// returns reported MIC for input `O=C(O)c1ccc(-n2cc(CNc3ccc(Cl)cc3)c(-c3ccc(C(F)(F)F)cc3)n2)cc1`
1.56

Fill blank: measured MIC of the compound `O=C(O)c1ccc(-n2cc(CNc3ccc(F)c(F)c3F)c(-c3ccc(C(F)(F)F)cc3)n2)cc1` is ____.
1.56

Consider the compound `O=C(O)c1ccc(-n2cc(CNc3ccc(Br)c(C(F)(F)F)c3)c(-c3ccc(C(F)(F)F)cc3)n2)cc1` and give its measured MIC.
3.12

Reported MIC for `O=C(O)c1ccc(-n2cc(CNc3cc(Br)cc(C(F)(F)F)c3)c(-c3ccc(C(F)(F)F)cc3)n2)cc1` : what is it?
0.78

Returns the measured MIC for the input compound. Input: `O=C(O)c1ccc(-n2cc(CNc3cc(C(F)(F)F)cc(C(F)(F)F)c3)c(-c3ccc(C(F)(F)F)cc3)n2)cc1`
0.78

What does the data say about its MIC? Entry: `N#Cc1ccc(NCc2cn(-c3ccc(C(=O)O)cc3)nc2-c2ccc(C(F)(F)F)cc2)cc1C(F)(F)F`
1.56

# query: MIC of entry `O=C(O)c1ccc(-n2cc(CNc3ccc(Cl)c(Cl)c3)c(-c3ccc(C(F)(F)F)cc3)n2)cc1`
0.78

MIC for `O=C(O)c1ccc(-n2cc(CNc3ccc(F)c(Cl)c3F)c(-c3ccc(C(F)(F)F)cc3)n2)cc1` ?
1.56

// MIC lookup, key: `O=C(O)c1ccc(-n2cc(CNc3cc(F)c(C(F)(F)F)c(F)c3)c(-c3ccc(C(F)(F)F)cc3)n2)cc1`
1.56

What does the record list as MIC for `O=C(O)c1ccc(-n2cc(CNc3cccc(F)c3)c(-c3ccc(C(F)(F)F)cc3)n2)cc1` ?
3.12

Reported MIC for `O=C(O)c1ccc(-n2cc(CNc3cc(C(F)(F)F)ccc3F)c(-c3ccc(C(F)(F)F)cc3)n2)cc1` : what is it?
1.56

---

Would you kindly list MIC for each of these compounds?
# Tested on: Staphylococcus epidermidis
# Protocol: Antimicrobial activity against methicillin-resistant Staphylococcus epidermidis ATCC 700296 assessed as bacterial growth inhibitions by CLSI protocol based microdilution method
# Format: functional
Write it as a number; the unit µg/mL goes unstated.

# query: MIC of entry `O=C(O)c1ccc(-n2cc(CNc3cccc(Br)c3)c(-c3ccc(C(F)(F)F)cc3)n2)cc1`
3.12

Sample `O=C(O)c1ccc(-n2cc(CNc3cc(Cl)c(F)c(Cl)c3F)c(-c3ccc(C(F)(F)F)cc3)n2)cc1` — what was its MIC?
0.78

Which measured MIC value corresponds to `O=C(O)c1ccc(-n2cc(CNc3ccc(Cl)cc3)c(-c3ccc(C(F)(F)F)cc3)n2)cc1` ?
3.12

Please report the recorded MIC for `O=C(O)c1ccc(-n2cc(CNc3ccc(Br)c(C(F)(F)F)c3)c(-c3ccc(C(F)(F)F)cc3)n2)cc1` .
12.5
